Target: Ubiquitin carboxyl-terminal hydrolase 17-like protein 5 (Homo sapiens)
Test: ubiquitin-specific protease 17 DUB inhibitors, concentration-effect assay, cell-free, verification of initial screening actives (AID 1645864)
Conditions: purified USP17, ubiquitin-rhodamine cleavage fluorescence, 3 h
Active and inactive are the calls of the source.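 Rule for the calls: active = maximal inhibition of USP17 at or above 30% in the confirmation dose-response, a value not among the printed readouts; inactive = the rest.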
# valid calls are active, inactive; nothing else

Here are 3 compounds together with their reported answers.
INSERT INTO results (compound, answerlabel) VALUES
  ('NS(=O)(=O)c1ccc(CNS(=O)(=O)c2ccc(-c3ccccn3)s2)cc1', 'active'),
  ('O=C(/C=C/c1ccc(F)cc1)Nc1ccc2c(c1)OCCO2', 'inactive'),
  ('Cc1cccc(C(=O)N2CCN3Cc4ccccc4N(C)CC3C2)c1 (centres undefined)', 'inactive');

Pending compound:
Look up the recorded call for Cc1ccc(NC(=O)Cn2c(Nc3cccc(C)c3)nc(C)cc2=O)cc1 in this test.
active

###

Target: UniProt:A8MUK1
Sequence (A8MUK1 whole entry, looked up): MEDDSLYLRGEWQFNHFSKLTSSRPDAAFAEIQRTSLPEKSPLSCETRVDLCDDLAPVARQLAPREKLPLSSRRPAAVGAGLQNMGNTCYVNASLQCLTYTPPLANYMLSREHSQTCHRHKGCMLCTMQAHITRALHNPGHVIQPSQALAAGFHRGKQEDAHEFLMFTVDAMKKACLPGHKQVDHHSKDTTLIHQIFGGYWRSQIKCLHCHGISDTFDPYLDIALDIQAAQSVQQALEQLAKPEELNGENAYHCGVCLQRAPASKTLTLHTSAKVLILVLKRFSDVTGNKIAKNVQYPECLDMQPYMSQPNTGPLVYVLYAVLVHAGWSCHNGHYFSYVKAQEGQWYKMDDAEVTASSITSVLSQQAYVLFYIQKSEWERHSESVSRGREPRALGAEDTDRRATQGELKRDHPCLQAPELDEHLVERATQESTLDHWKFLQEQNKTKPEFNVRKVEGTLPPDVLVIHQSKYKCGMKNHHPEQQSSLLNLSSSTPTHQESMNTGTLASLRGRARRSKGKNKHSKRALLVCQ
Assay: ubiquitin-specific protease 17 DUB inhibitors, concentration-effect assay, cell-free, verification of initial screening actives (AID 1645864)
Conditions: purified USP17, ubiquitin-rhodamine cleavage fluorescence, 3 h
Active and inactive are the calls of the source.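 How the source made its calls: active means maximal inhibition of USP17 at or above 30% in the confirmation dose-response, a value not among the printed readouts; inactive means the rest.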
# valid calls are active, inactive; nothing else

Here are 8 compounds together with their reported answers.
INSERT INTO results (compound, answerlabel) VALUES
  ('c1ccc(-n2nnc(-c3noc(-c4cccnc4)n3)c2-c2ccncc2)cc1', 'active'),
  ('O=C1C/C(=C\c2cccc(Cl)c2)Cc2ccccc21', 'inactive'),
  ('CCc1cc2c(=O)[nH]c(Cc3ccc(OC)cc3)nc2s1', 'active'),
  ('CC1CCN(S(=O)(=O)c2ccc3[nH]cc(C(=O)NCc4ccco4)c(=O)c3c2)CC1', 'inactive'),
  ('CN(C)CCc1cc2c(c3c1ccc1ccccc13)OCO2', 'inactive'),
  ('CCc1cc2cc3c(cc2nc1SCC(=O)Nc1cccc(C(C)=O)c1)OCO3', 'active'),
  ('COc1ccc(CNC(=O)CSc2nc3nc(C)ccc3o2)cc1', 'active'),
  ('Cc1cccc(NC(=O)c2ccn(COc3ccc(F)cc3F)n2)c1C', 'inactive');

Look up the recorded call for Cc1nn(Cc2ccccc2)c2sc(C(=O)Nc3nc4ccccc4[nH]3)cc12 in this test.
active

Next compound: CCN(CC(=O)Nc1cc(C)on1)c1cccc2ccccc12
inactive

Next compound: CC(Nc1ncnc2c1sc1nc(N3CCOCC3)c3c(c12)CCC3)c1ccccc1 (centres undefined)
active

Next compound: CS(=O)(=O)N1CCCc2cc(C(=O)Nc3ccc(Oc4ccccc4)cc3)ccc21
inactive

Next compound: CC(C)Cn1cc(OC(=O)c2ccc(F)cc2)c2c1nc(-c1ccc(F)cc1)n1c3ccccc3nc21
inactive

Next compound: Cc1ccccc1Cn1cc(SCC(=O)Nc2ccc3c(c2)OCCO3)c2ccccc21
inactive

###

Biological target: UniProt A8MUK1
Experiment: ubiquitin-specific protease 17 DUB inhibitors, concentration-effect assay, cell-free, verification of initial screening actives (AID 1645864)
Details: purified USP17, ubiquitin-rhodamine cleavage fluorescence, 3 h
Active and inactive are the calls of the source.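 Rule for the calls: active = maximal inhibition of USP17 at or above 30% in the confirmation dose-response, a value not among the printed readouts; inactive = the rest.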
# valid calls are 1 (active), 0 (inactive); nothing else

INSERT INTO assay_data (compound, answerlabel) VALUES
  ('C/C1=C\CCC(C)C(O)CC(O)C(C)C(O)CCC(C)C(O)CC2(O)OC(CC(OC(=O)CC(=O)O)CC(O)CC(O)CC(O)C(C)C(O)/C=C/C(C)C(C(C)CCCCCCCCN=C(N)N)OC1=O)CC(O)C2O (configuration not stated)', 0);

Look up the recorded call for Cc1ccc(C(=O)NCC(=O)Nc2nc3ccccc3[nH]2)c(C)c1 in this test.
1

Next compound: COc1cnc(-c2ccccn2)nc1Sc1ccccc1Cl
1

Next compound: CCOC(=O)[C@@H]1[C@@H](c2ccccc2)CN2CCN(C(=O)c3cnccn3)C[C@H]12
0

Next compound: O=C(CSc1nnc2n1CCCCC2)Nc1ccc2[nH]c(=O)[nH]c2c1
1

Next compound: CC(=O)N1CCOc2cc(S(=O)(=O)N3CCCC3c3cc(C)no3)ccc21 (configuration not stated)
0

Next compound: Cc1ccc(C)c(Nc2cc(C)nc3nc(-c4ccco4)nn23)c1
0
